molecular target: UniProt P22303; experiment: Inhibition of AChE (unknown origin)
I'd appreciate it if you marked entries YES when IC50 is lower than 0.4 µM and NO when it is not.

compound: COc1ccc2c3c([nH]c2c1N)C(C)NCC3 (stereo not given)
tested-target: UniProt P22303
label-value: NO
--
compound: c1ccc2c(c1)[nH]c1c[n+](CCCCCCCCCCCC[n+]3ccc4c(c3)[nH]c3ccccc34)ccc12
tested-target: UniProt P22303
label-value: NO
--
compound: CCOC(=O)[n+]1ccc2c([nH]c3cc(OC)ccc32)c1C
tested-target: UniProt P22303
label-value: YES
--
compound: C#CCn1c2cc(OC)ccc2c2ccnc(C)c21
tested-target: UniProt P22303
label-value: NO
--
compound: C[n+]1ccc2c3ccccc3n(CCc3ccccc3)c2c1
tested-target: UniProt P22303
label-value: YES
--
compound: Cc1ccc2c(c1)c1cc[n+](-c3ccccc3)cc1n2C
tested-target: UniProt P22303
label-value: NO

Problem: In plain terms, does Cc1nccc2c1[nH]c1ccccc12 come in under 0.4 µM for IC50?
Solution: NO

* * *

biological target: Acetylcholinesterase (Homo sapiens, UniProt P22303); assay: Inhibition of AChE (unknown origin)
Sequence (P22303 whole entry): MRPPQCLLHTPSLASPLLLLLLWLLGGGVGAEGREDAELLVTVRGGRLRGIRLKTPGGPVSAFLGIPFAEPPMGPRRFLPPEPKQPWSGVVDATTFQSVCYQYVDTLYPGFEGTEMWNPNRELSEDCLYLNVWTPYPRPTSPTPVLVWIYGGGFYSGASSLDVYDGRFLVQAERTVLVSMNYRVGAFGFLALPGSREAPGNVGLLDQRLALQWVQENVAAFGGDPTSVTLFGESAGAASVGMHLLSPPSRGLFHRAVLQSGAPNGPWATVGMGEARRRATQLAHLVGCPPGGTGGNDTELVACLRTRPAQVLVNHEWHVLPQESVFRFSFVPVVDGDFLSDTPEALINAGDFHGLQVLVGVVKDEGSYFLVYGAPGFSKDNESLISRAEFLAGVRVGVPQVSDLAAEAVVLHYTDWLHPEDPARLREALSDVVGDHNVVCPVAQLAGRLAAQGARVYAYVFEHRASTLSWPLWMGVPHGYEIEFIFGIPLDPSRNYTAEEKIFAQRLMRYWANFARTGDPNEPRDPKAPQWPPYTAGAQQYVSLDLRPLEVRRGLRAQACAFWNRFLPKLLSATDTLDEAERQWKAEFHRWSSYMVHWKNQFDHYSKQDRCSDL
Each record here notes measured IC50.
Give a bare numeral; the unit nM is implied.

molecule: CC1c2[nH]c3ccccc3c2CCN1C(=O)/C=C/c1ccc(O)c(O)c1 (stereo unspecified)
IC50 (nM): 21000
--
molecule: O=C1[C@@H]2Cc3c([nH]c4ccccc34)[C@@H](c3ccc4c(c3)OCO4)N2C(=O)CN1CCC1CCN(Cc2ccccc2)CC1
IC50 (nM): 32
--
molecule: O=C(NCCCCCCNc1c2c(nc3ccccc13)CCCC2)[C@@H]1Cc2c([nH]c3ccccc23)CN1
IC50 (nM): 22
--
molecule: COc1ccc([C@@H]2N[C@@H](C(=O)O)Cc3c2n(C)c2ccccc32)cc1OC
IC50 (nM): 2500

// next entry
Problem: What IC50 appears in the records for this molecule with Acetylcholinesterase (Homo sapiens, UniProt P22303)? COc1ccc2c3ccnc(C)c3n(CC3CC(c4ccccc4)=NO3)c2c1 (stereo unspecified)
Solution: 11000

* * *

biological target: Histone deacetylase 1 (Homo sapiens)
Sequence (Q13547 whole entry): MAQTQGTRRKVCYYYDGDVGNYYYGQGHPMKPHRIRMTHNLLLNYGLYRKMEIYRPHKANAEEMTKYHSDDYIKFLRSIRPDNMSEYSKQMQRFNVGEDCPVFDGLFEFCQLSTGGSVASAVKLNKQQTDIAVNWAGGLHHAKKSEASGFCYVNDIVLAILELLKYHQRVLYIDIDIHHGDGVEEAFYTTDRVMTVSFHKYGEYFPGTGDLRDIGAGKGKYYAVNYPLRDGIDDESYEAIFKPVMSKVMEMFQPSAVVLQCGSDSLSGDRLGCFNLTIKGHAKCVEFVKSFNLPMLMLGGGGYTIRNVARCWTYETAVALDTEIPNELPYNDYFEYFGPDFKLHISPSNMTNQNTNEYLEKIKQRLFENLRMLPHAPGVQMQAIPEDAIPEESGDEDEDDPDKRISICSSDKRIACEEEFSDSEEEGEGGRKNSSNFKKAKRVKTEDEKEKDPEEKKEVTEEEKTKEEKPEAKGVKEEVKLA
value-type: IC50 (nM)
Give a bare numeral; the unit nM is implied.

molecule: COc1ccc(-c2nc(C(=O)NCc3ccc(C(=O)NO)cc3)cc3c2[nH]c2ccccc23)cc1
unit: nM
IC50: 4.1

// next entry
Problem: Which IC50 is listed for O=C(NO)c1cnc(N2CCC(CN3CC(=O)N4C(Cc5c([nH]c6ccccc56)C4c4ccc5c(c4)OCO5)C3=O)CC2)nc1 (configuration not stated) ?
Solution: 80

* * *

target: GABA-A receptor; anion channel; experiment: Displacement of [3H]flunitrazepam from GABAA (unknown origin ) receptor by radioligand binding assay; format: protein-complex assay, Homo sapiens
I'd appreciate it if you marked entries satisfied when IC50 is lower than 1 nM and not satisfied when it is not.

Example cases with answers are listed next.
compound: CCCOc1cc2c(cn1)[nH]c1ccccc12
label-value: not satisfied
//
compound: COC(=O)c1cc2c(cn1)[nH]c1ccc(NCc3ccccc3)cc12
label-value: not satisfied
//
compound: COc1ccc2c3c([nH]c2c1)C(C)NCC3 (stereo not drawn)
label-value: not satisfied
//
compound: CC(C)(C)COC(=O)c1cc2c(cn1)[nH]c1ccccc12
label-value: not satisfied
//
compound: CCOC(=O)c1ncc2[nH]c3cccc(OC(C)C)c3c2c1C
label-value: satisfied

Problem: In plain terms, does COC(=O)c1cc2c(cn1)[nH]c1ccc(O)cc12 come in under 1 nM for IC50?
Solution: not satisfied

Problem: In plain terms, does S=C=Nc1cc2c(cn1)[nH]c1ccccc12 come in under 1 nM for IC50?
Solution: not satisfied

Problem: In plain terms, does N#Cc1cc2c(cn1)[nH]c1ccccc12 come in under 1 nM for IC50?
Solution: not satisfied

Problem: In plain terms, does CCOC(=O)c1ncc2[nH]c3ccc(O)cc3c2c1COC come in under 1 nM for IC50?
Solution: satisfied

Problem: In plain terms, does CCCC(=O)c1cc2c(cn1)[nH]c1ccccc12 come in under 1 nM for IC50?
Solution: not satisfied

Problem: In plain terms, does Cc1nccc2c1[nH]c1ccccc12 [HARMAN] come in under 1 nM for IC50?
Solution: not satisfied

Problem: In plain terms, does CCOC(=O)c1ncc2[nH]c3ccc(OCc4ccccc4)cc3c2c1COC come in under 1 nM for IC50?
Solution: satisfied

Problem: In plain terms, does CCOC(=O)c1ncc2[nH]c3ccccc3c2c1COC come in under 1 nM for IC50?
Solution: satisfied

Problem: In plain terms, does c1ccc2c(c1)[nH]c1cnccc12 [NORHARMANE] come in under 1 nM for IC50?
Solution: not satisfied

Problem: In plain terms, does O=C(O)c1cc2c(cn1)[nH]c1ccccc12 come in under 1 nM for IC50?
Solution: not satisfied

Problem: In plain terms, does COc1ccc2c(c1)[nH]c1c(C)nccc12 [HARMINE] come in under 1 nM for IC50?
Solution: not satisfied

Problem: In plain terms, does CCOC(=O)c1ncc2[nH]c3ccc(OC)cc3c2c1COC come in under 1 nM for IC50?
Solution: satisfied

Problem: In plain terms, does CCOC(=O)c1ncc2[nH]c3cccc(OCc4ccccc4)c3c2c1COC come in under 1 nM for IC50?
Solution: satisfied

Problem: In plain terms, does CCCOc1ccc2[nH]c3cnc(C(=O)OCC)c(COC)c3c2c1 come in under 1 nM for IC50?
Solution: satisfied
